# assay_remarks: chemical genetic growth profiling, strain panel (AID 1159580);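 further: tested at 20 µM; growth read once vehicle control cultures reached saturation at 30 °C; 1 = growth at the plate median or of vehicle wells; lower values mean less growth of the strain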
# condition_parameters: S. cerevisiae deletion strains, growth OD, locus YKL193C, strain SDS22, active compounds read low
Among all 5,500 compounds or so, about 2,000 (36%) were called active. About 18% were inconclusive and are not listed. Some of the results follow.
assay_readout: normalized growth

molecule=O=C(Nc1cccnc1)c1cc2c(s1)-c1ccccc1CC2 endpoint_result=0.918
molecule=O=C(Nc1cc2c(s1)-c1cc(Cl)ccc1SC2)Oc1ccccc1 endpoint_result=1.01
molecule=COc1cc(N2C(=O)C=CC2=O)cc(OC)c1OC endpoint_result=0.939
molecule=S=C(Nc1ccc(Cl)cc1)Nc1ccc(Cl)cc1 endpoint_result=0.926
molecule=CC(=O)c1ccccc1C(=O)c1ccc(C(C)(C)C)cc1 endpoint_result=0.961
molecule=CC(C)(C)c1ccc(C(=O)NNC(=S)Nc2ccc(Cl)cc2)cc1 endpoint_result=0.97
molecule=Clc1ccc(N/N=C\c2sccc2Oc2ccccc2)cc1 endpoint_result=0.968
molecule="CN1c2ccccc2C(C)(C)C12C=Cc1cc(O)ccc1O2 (stereo not drawn)" endpoint_result=0.973
molecule=O=C(c1cc2c(s1)-c1ccccc1CC2)N1CCN(Cc2ccccc2)CC1 endpoint_result=1
molecule=CSc1nnc(COc2ccc(C)c3c2CCC3)n1-c1ccccc1 endpoint_result=0.98
molecule=C/C(=N/NC(=O)c1ccc(C(C)(C)C)cc1)c1ccccc1O endpoint_result=0.988
molecule="S=C(N/N=C\\c1cccs1)NC1CC2CCC1C2 (stereo not drawn)" endpoint_result=0.947
molecule=Cc1ccc(OCc2n[nH]c(=S)n2Cc2ccccc2)c2c1CCC2 endpoint_result=0.988

====

# assay_remarks: chemical genetic growth profiling, strain panel (AID 1159580);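 further: tested at 20 µM; growth read once vehicle control cultures reached saturation at 30 °C; 1 = growth at the plate median or of vehicle wells; lower values mean less growth of the strain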
# condition_parameters: S. cerevisiae deletion strains, growth OD, locus YBR229C, strain ROT2, active compounds read low
Out of some 5,500 compounds screened, about 2,000 (36%) were called active. Not shown: some 18% with an inconclusive outcome. This is one part of the list.
assay_readout: normalized growth

molecule=COc1ccc(C(=O)O)c(O)c1OC endpoint_result=1.02
molecule=O=C1CCCN1c1ccc(Cl)c(Cl)c1 endpoint_result=0.977
molecule=COc1cccc(O)c1O endpoint_result=1.04
molecule="Cc1cc(C)cc(N2C(=O)CC(Sc3ccccc3C(=O)O)C2=O)c1 (centres undefined)" endpoint_result=0.987
molecule=CN1CCN(CCC=C2c3ccccc3Sc3ccc(S(=O)(=O)N(C)C)cc32)CC1 endpoint_result=1.01
molecule="C1CCN(CCC2CCCCN2)CC1 (centres undefined)" endpoint_result=1.01
molecule=Cc1ccc(N=Nc2c(C)[nH]n(C)c2=O)cc1 endpoint_result=0.921
molecule="CC(=O)Oc1cc2c(c(C)c1OC(C)=O)CC1OC13C2(C)CCC1(C)C2CC(C)(C(=O)O)CCC2(C)CCC13C (centres undefined)" endpoint_result=1.01
molecule="CO[C@H]1C[C@H](O[C@H]2[C@H](C)[C@@H](OC3O[C@H](C)C[C@H](N(C)C)[C@H]3OC(C)=O)[C@@H](C)C[C@]3(CO3)C(=O)[C@H](C)[C@@H](OC(C)=O)[C@@H](C)[C@@H](C)OC(=O)[C@@H]2C)O[C@@H](C)[C@@H]1OC(C)=O (some centres undefined)" endpoint_result=1.01
molecule=COc1cc([N+](=O)[O-])ccc1N1CCCC1 endpoint_result=0.941
molecule="CC(=O)CC1CCCCN1 (centres undefined)" endpoint_result=1.02
molecule=O=C(O)c1cc(=O)c2cccc(O)c2[nH]1 endpoint_result=0.999
molecule=Cc1onc(-c2ccccc2Cl)c1C(=O)N[C@@H]1C(=O)N2[C@@H]1SC(C)(C)[C@@H]2C(=O)O endpoint_result=1.01
molecule="CC(N)C(O)c1ccc(O)c(O)c1 (centres undefined)" endpoint_result=0.98
molecule=Cc1[nH]n(C)c(=O)c1N=Nc1ccc(Cl)cc1 endpoint_result=0.886
molecule="OC(c1cc(C(F)(F)F)nc2c(C(F)(F)F)cccc12)C1CCCCN1 (centres undefined)" endpoint_result=0.988
molecule=c1ccc([C@H]2CN3CCSC3=N2)cc1 endpoint_result=1.01
molecule=CC1=NN(c2ccccc2)C(=O)C1 endpoint_result=0.978
molecule=CC(=O)NC(=O)/C(C#N)=C/N1CCN(Cc2ccccc2)CC1 endpoint_result=0.989
molecule=NC(=O)N1c2ccccc2C=Cc2ccccc21 endpoint_result=1.03
molecule="Cc1onc(-c2ccccc2)c1C(=O)NC1C(=O)N2[C@@H]1SC(C)(C)[C@@H]2C(=O)O (some centres undefined)" endpoint_result=1
molecule=COc1cccc(OC)c1C(=O)N[C@@H]1C(=O)N2[C@@H]1SC(C)(C)[C@@H]2C(=O)O endpoint_result=1.01
molecule=COc1ccc2c(c1OC)OC[C@@H](c1ccc(OC)c(OC)c1OC)C2 endpoint_result=1
molecule=Cc1ccc(=O)n(Cc2ccc(Cl)c(Cl)c2)n1 endpoint_result=1.01
